# Tested on: MDAMB330
# measurement.description: area over the GR curve, 72 h; higher = more effect
Tag: Fulfilled if measured area over the GR curve is not below 0.9 GR, Not fulfilled if it is.

NC(=O)Nc1cc(-c2cccc(F)c2)sc1C(=O)N[C@H]1CCCNC1 [AZD7762] (max 10 µM) | Not fulfilled
CN(C)C/C=C/C(=O)Nc1ccc(C(=O)Nc2cccc(Nc3cc(-c4c[nH]c5ccccc45)ncn3)c2)cc1 [THZ-P1-2] (max 10 µM) | Not fulfilled
CN(C)C/C=C/C(=O)Nc1ccc(O[C@@H]2CCC[C@@H](Nc3ncc(Cl)c(-c4c[nH]c5ccccc45)n3)C2)cc1 [BSJ-01-175] (max 10 µM) | Fulfilled

Alright, here's another molecule for you.
Please tell me: is the molecule Cc1cc(Nc2ncc(Cl)c(Nc3ccccc3S(=O)(=O)C(C)C)n2)c(OC(C)C)cc1C1CCNCC1 [Ceritinib/LDK378] (max 10 µM) at or over 0.9 GR in terms of area over the GR curve?
Not fulfilled

###

Overview of reported area over the GR curve across a group of compounds:
# Tested on: ZR7530
# measurement.description: area over the GR curve, 72 h; higher = more effect
Reply numerically in GR, unit not repeated.

Would you please look over these solved cases?
Cc1cc(C(C)Nc2ccccc2)c2nc(N3CCOCC3)cc(=O)n2c1 (centres undefined) [TGX221] (max 10 µM) | -0.0239
CO[C@@H](C)Cn1c(=O)n(C)c2cnc3ccc(-c4cncc(C(C)(C)O)c4)cc3c21 (max 10 µM) | 0.726
O=C1NC(=NCc2cccs2)SC1=Cc1ccc2ncccc2c1 [R0-3306] (max 10 µM) | 0.113

Next:
Looking for the measured area over the GR curve of CS(=O)(=O)N1CCN(Cc2cc3nc(-c4cccc5[nH]ncc45)nc(N4CCOCC4)c3s2)CC1 [Pictilisib/GDC0941] (max 10 µM) , can you help?
0.465

###

We begin with a simple list: items and their reported area over the GR curve.
# System: ZR751
# measurement.description: area over the GR curve, 72 h; higher = more effect;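 also: Dye Drop or Deep Dye Drop imaging of viable cells in 384-well plates (Hoechst nuclei, LIVE/DEAD dye), nine half-log doses, GR normalized to DMSO controls and time-zero plates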
The answer is to be given in GR; state only the numeric part.

COc1cc(N2CCN(C)CC2)ccc1Nc1ncc2c(n1)N(C)c1ccccc1C(=O)N2CC(F)(F)F | 0.0552
CCCCOc1c(C(=O)c2c(F)cc(C)cc2F)c[nH]c2nncc1-2 (max 10 µM) | 0.209

Look up area over the GR curve: "COc1ccc2c(c1)[C@]1(C[C@H]1c1ccc3c(/C=C/c4ccc(CN5C[C@@H](C)O[C@@H](C)C5)cc4)n[nH]c3c1)C(=O)N2"
0.451

// query area over the GR curve value for entry NC1(C(=O)N[C@@H](CCO)c2ccc(Cl)cc2)CCN(c2nc[nH]c3nccc2-3)CC1 [AZD5363] (max 10 µM)
0.0911

Bench note: what area over the GR curve did CC(=O)Nc1cccc(-n2c(=O)n(C3CC3)c(=O)c3c(Nc4ccc(I)cc4F)n(C)c(=O)c(C)c32)c1 (max 1 µM) show?
0.328

If you can, please state the reported area over the GR curve value of CS(=O)(=O)N1CCN(Cc2cc3nc(-c4cccc5[nH]ncc45)nc(N4CCOCC4)c3s2)CC1 [Pictilisib/GDC0941] (max 10 µM) .
0.324

# get_value(readout='area over the GR curve', item= CCNC(=O)c1noc(-c2cc(C(C)C)c(O)cc2O)c1-c1ccc(CN2CCOCC2)cc1 [Luminespib/NVP-AUY922] (max 1 µM) )
0.362
